Where these numbers come from: ChEMBL document CHEMBL1147320

Reported pIC50 values, Epidermal growth factor receptor (Mus musculus, UniProt Q01279).
Lab note — pIC50 values are minus log10 of concentrations in M.

-- ask Jot down pIC50 (Epidermal growth factor receptor (Mus musculus, UniProt Q01279)) of `O=C(O)c1cc(N(Cc2ccccc2O)Cc2ccccc2O)ccc1O` .
-- reply 5.87

* * *

Reported IC50 values, Epidermal growth factor receptor (Mus musculus).
Answer format: numeric, nM implied, no suffix.

Recorded IC50, per entry:
>>> numeric_result("O=C(O)c1cc(N(Cc2cc(O)ccc2O)Cc2cc(O)ccc2O)ccc1O")
27.7
>>> numeric_result("O=C(O)c1ccc(O)c(N(Cc2ccccc2O)Cc2cc(O)ccc2O)c1")
446

We now examine a further compound.
-- ask Jot down IC50 (Epidermal growth factor receptor (Mus musculus)) of O=C(O)c1cc(N(Cc2ccccc2O)Cc2cc(O)ccc2O)ccc1O [LAVENDUSTIN A] .
-- reply 11.5
